Values from paper PMC11012124

test system: LOX IMVI; experiment: cells; settings: Homo sapiens, 48 h
Measurement kind: GI50

{"columns": ["Compound", "Measurement kind", "Test value"],
 "data": [
  ["CN(C)c1nc(NCCNS(=O)(=O)c2ccc(C(=O)/C=C/c3ccccc3)cc2)nc(Nc2ccc(F)cc2)n1 [24a]", "GI50", "2470 nM"],
  ["COc1cc(/C=C/C(=O)c2ccccc2)ccc1Oc1nc(Nc2ccc(F)cc2)nc(N(C)C)n1 [21a]", "GI50", "1600 nM"],
  ["COc1cc(/C=C/C(=O)c2ccc(S(=O)(=O)NCCNc3nc(Nc4ccc(F)cc4)nc(N(C)C)n3)cc2)cc(OC)c1OC [24d]", "GI50", "1710 nM"],
  ["CN(C)c1nc(NCCNS(=O)(=O)c2ccc(C(=O)/C=C/c3ccc(F)cc3)cc2)nc(Nc2ccc(F)cc2)n1 [24f]", "GI50", "1660 nM"],
  ["CN(C)c1nc(NCCNS(=O)(=O)c2ccc(C(=O)/C=C/c3ccc(C(F)(F)F)cc3)cc2)nc(Nc2ccc(F)cc2)n1 [24g]", "GI50", "1860 nM"]
]}

Input: // map Nc1nc(N)c2c(n1)NC(c1ccc(Cl)cc1)CC(c1ccc(Nc3nc(NCCO)nc(Nc4ccc(Cl)cc4)n3)cc1)=N2 (centres unmarked) [33e] to recorded GI50 (system: LOX IMVI)
Output: 1450 nM
